- System: SK-N-MM (SKNMM-MYCN, doxycycline-inducible MYCN)
- METHOD NOTES: area under dose-response curve (CellTiter-Glo viability normalised to plate controls) (AUC (arbitrary units)); higher = more loss of viability; extreme values may be limits of the assay
- REPORTED CONDITIONS: MYCN induction (doxycycline): no doxycycline (MYCN not induced); time after drugging: 8 days
area under dose-response curve values by entry
READOUT NAME: area under dose-response curve

compound=CN(C)C/C=C/C(=O)Nc1cc2c(Nc3ccc(F)c(Cl)c3)ncnc2cc1O[C@H]1CCOC1 endpoint_value=121
compound=CC/C(=C(\c1ccccc1)c1ccc(OCCN(C)C)cc1)c1ccccc1 endpoint_value=0
compound="O=C1NC(=O)[C@@H](c2cn3c4c(cccc24)CCC3)[C@@H]1c1c[nH]c2ccccc12 [TIVANTINIB]" endpoint_value=77.2
compound=Cc1cnc(NC(=O)Nc2cc(Br)c(C)cc2OC[C@@H]2CNCCO2)cn1 endpoint_value=95.5
compound=CC1=C(/C=C/C(C)=C/C=C/C(C)=C/C(=O)O)C(C)(C)CCC1 endpoint_value=0
compound=Nc1ccn([C@@H]2O[C@H](CO)[C@@H](O)C2(F)F)c(=O)n1 endpoint_value=139

----------
- Test system: SK-N-MM (SKNMM-MYCN, doxycycline-inducible MYCN)
- METHOD NOTES: area under dose-response curve (CellTiter-Glo viability normalised to plate controls) (AUC (arbitrary units)); higher = more loss of viability; extreme values may be limits of the assay
- REPORTED CONDITIONS: MYCN induction (doxycycline): no doxycycline (MYCN not induced); time after drugging: 8 days
READOUT NAME: area under dose-response curve

molecule="COC(=O)[C@]12CCC(C)(C)C[C@H]1[C@H]1C(=O)C=C3[C@@]4(C)C=C(C#N)C(=O)C(C)(C)[C@@H]4CC[C@@]3(C)[C@]1(C)CC2 [BARDOXOLONE METHYL]" endpoint_value=226
molecule="COc1cc2c(Oc3ccc(NC(=O)C4(C(=O)Nc5ccc(F)cc5)CC4)cc3F)ccnc2cc1OCCCN1CCOCC1 [FORETINIB]" endpoint_value=140
molecule="Cc1cc(Nc2ncc(Cl)c(Nc3ccccc3S(=O)(=O)C(C)C)n2)c(OC(C)C)cc1C1CCNCC1 [CERITINIB]" endpoint_value=170
molecule="CO[C@H]1C(=O)[C@]2(C)[C@@H](OC)C[C@H]3OC[C@@]3(OC(C)=O)[C@H]2[C@H](OC(=O)c2ccccc2)[C@]2(O)C[C@H](OC(=O)[C@H](O)[C@@H](NC(=O)OC(C)(C)C)c3ccccc3)C(C)=C1C2(C)C [CABAZITAXEL]" endpoint_value=225
molecule="CS(=O)(=O)c1ccc(C(=O)Nc2ccc(Cl)c(-c3ccccn3)c2)c(Cl)c1 [VISMODEGIB]" endpoint_value=0
molecule="CCCS(=O)(=O)Nc1ccc(F)c(C(=O)c2c[nH]c3ncc(-c4ccc(Cl)cc4)cc23)c1F [VEMURAFENIB]" endpoint_value=0

----------
- System: SK-N-MM (SKNMM-MYCN, doxycycline-inducible MYCN)
- METHOD NOTES: area under dose-response curve (CellTiter-Glo viability normalised to plate controls) (AUC (arbitrary units)); higher = more loss of viability; extreme values may be limits of the assay
- REPORTED CONDITIONS: MYCN induction (doxycycline): +doxycycline (MYCN induced); time after drugging: 3 days
Listed here: items and their measured area under dose-response curve.
READOUT NAME: area under dose-response curve

compound="CC[C@]1(O)C[C@@H]2CN(CCc3c([nH]c4ccccc34)[C@@](C(=O)OC)(c3cc4c(cc3OC)N(C)[C@H]3[C@@](O)(C(=O)OC)[C@H](OC(C)=O)[C@]5(CC)C=CCN6CC[C@]43[C@@H]65)C2)C1 [VINBLASTINE]" endpoint_value=190
compound="C=C(c1ccc(C(=O)O)cc1)c1cc2c(cc1C)C(C)(C)CCC2(C)C [BEXAROTENE]" endpoint_value=4.22
compound="C=C1C[C@@H]2CC[C@@]34C[C@H]5O[C@H]6[C@@H](O3)[C@H]3O[C@H](CC[C@@H]3O[C@H]6[C@H]5O4)CC(=O)C[C@@H]3[C@@H](OC)[C@@H](C[C@H](O)CN)O[C@H]3C[C@H]3O[C@@H](CC[C@@H]1O2)C[C@@H](C)C3=C [ERIBULIN]" endpoint_value=0
compound="CC(=O)O[C@H]1CC[C@@]2(C)C(=CC[C@@H]3[C@@H]2CC[C@]2(C)C(c4cccnc4)=CC[C@@H]32)C1 [ABIRATERONE ACETATE]" endpoint_value=8.14
compound="N#CN=C(NCCCCCCOc1ccc(Cl)cc1)Nc1ccncc1 [GMX-1778]" endpoint_value=172
compound="CC(C)NC[C@@H](C(=O)N1CCN(c2ncnc3c2[C@H](C)C[C@H]3O)CC1)c1ccc(Cl)cc1 [IPATASERTIB]" endpoint_value=0
compound="O=C(Nc1c[nH]nc1-c1nc2ccc(CN3CCOCC3)cc2[nH]1)NC1CC1 [AT9283]" endpoint_value=91
